- target-entity: Ebola GP ectodomain (Mayinga, Zaire, 1976) with the mucin-like domain deleted (Zaire ebolavirus (Mayinga, 1976), UniProt Q05320 33-650)
assay-readout: pKd
The read-out pKd is expressed as -log10 of concentration in moles per litre.

Worked examples follow.
mAb114 VH A68T-E72D-S79Y-I113T / VL V43A Fab (Fab, V domains shown) VH: EVQLVESGGGLIQPGGSLRLSCAASGFALRMYDMHWVRQTIDKRLEWVSAVGPSGDTYYADSVKGRFTVSRDNAKNSLYLQMNSLTAGDTAIYYCVRSDRGVAGLFDSWGQGTLVTVSS VL: DIQMTQSPSSLSASVGDRITITCRASQAFDNYVAWYQQRPGKAPKLLISAASALHAGVPSRFSGSGSGTHFTLTISSLQPEDVATYYCQNYNSAPLTFGGGTKVEIK: 10.12
mAb114 VH A68T-I113T / VL V43A Fab (Fab, V domains shown) VH: EVQLVESGGGLIQPGGSLRLSCAASGFALRMYDMHWVRQTIDKRLEWVSAVGPSGDTYYADSVKGRFTVSRENAKNSLSLQMNSLTAGDTAIYYCVRSDRGVAGLFDSWGQGTLVTVSS VL: DIQMTQSPSSLSASVGDRITITCRASQAFDNYVAWYQQRPGKAPKLLISAASALHAGVPSRFSGSGSGTHFTLTISSLQPEDVATYYCQNYNSAPLTFGGGTKVEIK: 9.77

Consider the record given below.
Tell me its pKd given mAb114 VL N90Q Fab (Fab, V domains shown) VH: EVQLVESGGGLIQPGGSLRLSCAASGFALRMYDMHWVRQTIDKRLEWVSAVGPSGDTYYADSVKGRFAVSRENAKNSLSLQMNSLTAGDTAIYYCVRSDRGVAGLFDSWGQGILVTVSS VL: DIQMTQSPSSLSASVGDRITITCRASQAFDNYVAWYQQRPGKVPKLLISAASALHAGVPSRFSGSGSGTHFTLTISSLQPEDVATYYCQQYNSAPLTFGGGTKVEIK as the entry. 8.40
